Reference for the values: PubChem BioAssay (NCI)

Tested on: PC-3 prostate
assay-name: NCI-60 one-dose screen, 48 h
condition-description: 10 µM unless noted
The panel holds about 83,000 compounds, 20% with a hit somewhere; the sample as a whole holds those more often. Activity calls are given as the source filed them. How the source made its calls: active means growth percent below 10; inactive means the rest.
Please reply with one of these outcomes: active, inactive

Call for entry "Cn1c2ccccc2c2c3c(c4c5ccccc5n(CCCCCC#N)c4c21)C(=O)N(O)C3=O" :
inactive

Call for entry "Nc1c(C(=O)Nc2ccccc2Cl)sc2nc3c(cc12)CCCCCC3" :
inactive

Call for entry "Cc1ccc2c(c1)n([O-])c1cc(Cl)ccc1[n+]2=O" :
inactive

Call for entry "O=[N+]([O-])c1cccc(-c2nc3sccn3c2-c2ccnc(NCCCNS(=O)(=O)c3cccc(F)c3)n2)c1" :
active

Call for entry "Cc1cc(OCc2ccc(C(F)(F)F)cc2)c2c(c1)C(=O)C=C(NCCN1CCCC1)C2=O" :
inactive

Call for entry "O=C1C(=O)N(CCCCn2cc(CO)nn2)c2ccccc21" :
inactive

Call for entry "O=C(Cc1ccccc1)c1ccc(Cl)cc1" :
inactive

Call for entry "O=C(Nc1nc(-c2ccccc2)cc(-c2ccc(Cl)cc2)n1)c1ccncc1" :
inactive

Call for entry "Cc1nc2nc(N)nc(N)c2nc1C" :
inactive

Call for entry "C[C@@H]1CC[C@@H]2[C@@H]1[C@H](OC(=O)/C=C/c1ccccc1)[C@]1(C3CCCCC3)C[C@@H](OC(=O)CO)[C@@]2(C)O1" :
inactive

Call for entry "O=C1c2cc3c(cc2-c2c1c1cc(Cl)c(Cl)cc1c(=O)n2C[C@H](O)CO)OCO3" :
active

Call for entry "COc1ccc(C(=O)/C=C/c2c[n+](=O)c3ccc(F)cc3n2[O-])cc1" :
inactive

Call for entry "CCC(=O)OCc1cccc(OC)c1" :
inactive

Call for entry "O=C(CO[N+](=O)[O-])Nc1ccc(C(=O)/C=C/c2ccc(Cl)cc2)cc1" :
inactive

Call for entry "CC(C)n1cc2c(N)ncnc2n1" :
inactive

Call for entry "O=C(/C=C/c1ccc(Cl)cc1)c1ccc(O)c(CN2CCN(c3cc4c(cc3F)c(=O)c(C(=O)O)cn4C3CC3)CC2)c1" :
inactive

Call for entry "COc1ccc(/C=C2\N=C3Sc4cc(Cl)ccc4C(=O)N3C2=O)cc1" :
inactive

Call for entry "Nc1cc(-c2nc3sccn3c2-c2ccnc(NCCCNS(=O)(=O)c3ccc(F)cc3)n2)ccc1F" :
inactive

Call for entry "CCCCCn1cnc2c(=S)nc[nH]c21" :
inactive

Call for entry "CNCc1cccc2c1OCCOCCOCCN(C)S(=O)(=O)c1ccc(cc1)-c1cnc(N)c(n1)C(=O)N2" :
inactive

Call for entry "O=c1c2cccc3c(Nc4c(F)cccc4F)ccc(c32)c2nc3ccccc3n12" :
inactive

----------
Provide the reported growth of each item.
Test system: NCI/ADR-RES ovarian
assay-name: NCI-60 one-dose screen, 48 h (100 = growth as untreated, 0 = no growth, -100 = all killed)
condition-description: 10 µM unless noted
About 83,000 compounds went through this panel and 20% of them were active in at least one assay; those are over-represented in the sample as a whole. Active and inactive are the calls of the source. How the source made its calls: active means growth percent below 10; inactive means the rest.

Query: growth; subject: "CCN(CC)CCCCNc1ccc(NCCCCN(CC)CC)c2c1C(=O)c1ccccc1C2=O"
83.4% (inactive)

Query: growth; subject: "COc1ccc(-c2cnoc2-c2cc(OC)c3c(c2)OCCO3)cc1"
3.01% (active)

Query: growth; subject: "Nc1c(C(=O)Nc2cccc3c2OCCO3)sc2nc3c(cc12)CN(Cc1ccccc1)CC3"
53% (inactive)

Query: growth; subject: COc1cc(C2CC(=O)Nc3c2c(C)nn3-c2nc3ccccc3[nH]2)cc(OC)c1OC (centres undefined)
98.7% (inactive)

Query: growth; subject: COc1cc(C2C(C(=O)c3cccs3)=C(O)C(=O)N2CCN2CCOCC2)cc(OC)c1OC (centres undefined)
107% (inactive)

Query: growth; subject: "CCOC(=S)SCc1ccc(Cl)cc1"
105% (inactive)

Query: growth; subject: "COc1cnc2c(c1)C(=O)c1c-2n(CCCN2CCNCC2)c(=O)c2cc([N+](=O)[O-])ccc12"
-44.3% (active)

Query: growth; subject: "CC(C)(C)c1nn(-c2ccccc2)c2c1CC1(CN2Cc2ccc3c(c2)OCO3)C(=O)c2ccccc2C1=O"
101% (inactive)

Query: growth; subject: "O=C(NCc1cccc(C(F)(F)F)c1)[C@H](CCC(=O)N1CCN(C2CCCCC2)CC1)N1C(=O)[C@@H](N2C(=O)OC[C@@H]2c2ccccc2)[C@H]1/C(Cl)=C/c1ccccc1"
35.7% (inactive)

Query: growth; subject: "COc1cc(/C=C2\CN(C(=O)CCN3CCC(=NO)CC3)C/C(=C\c3cc(OC)c(OC)c(OC)c3)C2=O)cc(OC)c1OC"
9.97% (active)

Query: growth; subject: "COc1cnc2c(c1)C(=O)c1c-2n(CCCBr)c(=O)c2cc([N+](=O)[O-])ccc12"
11.6% (inactive)

Query: growth; subject: "COc1ccc(/C=C2\N=C3Sc4cc(Cl)ccc4C(=O)N3C2=O)cc1"
106% (inactive)

Query: growth; subject: "CC1=C(NCCN2CCCC2)C(=O)c2c(OCc3ccc(C(F)(F)F)cc3)cccc2C1=O"
87.5% (inactive)

Query: growth; subject: "CC1(C)CC(=O)C(c2c(-c3ccccc3)[nH]c3[nH]c(=S)[nH]c(=O)c23)=C(O)C1"
108% (inactive)

Query: growth; subject: "Oc1c(Cl)cc(Cl)cc1CNc1nccnn1"
98.5% (inactive)

Query: growth; subject: "O=C(/C=C/c1cc2ccccc2[nH]c1=O)/C=C/c1cc2ccccc2[nH]c1=O"
57.2% (inactive)

Query: growth; subject: "COc1ccc2c(c1)C(=O)/C(=C/c1cccc(OCC(=O)Nc3nc4c(s3)CCCC4)c1)O2"
10.4% (inactive)

Query: growth; subject: "Fc1ccc(Cc2ccc(F)cc2)cc1"
101% (inactive)

Query: growth; subject: "CNCc1cccc2c1OCCOCCOCCN(C)S(=O)(=O)c1ccc(cc1)-c1cnc(N)c(n1)C(=O)N2"
80.1% (inactive)

----------
Tested on: NCI/ADR-RES ovarian
assay-name: NCI-60 one-dose screen, 48 h
condition-description: 10 µM unless noted
This is part of a sample that, as a whole, favours compounds with a hit. Of some 83,000 tested, about 20% had one in any assay. Activity calls are given as the source filed them. The calls were made as follows: active = growth percent below 10; inactive = the rest.
Please reply with one of these outcomes: yes = active, no = inactive

Call for entry "C/C=C/C(N)=O" :
no

Call for entry "CCC(=O)Oc1ccc(/C(=C(\C)c2ccccc2)c2ccc(OCCN(CC)CC)cc2)cc1" :
no

Call for entry "CC1=N/C(=C\c2cccc(Br)c2)C(=O)O1" :
no

Call for entry "CN1CCN(Cc2ccc(NC(=O)c3[nH]ncc3Nc3ncnc4[nH]ccc34)cc2)CC1" :
no

Call for entry "O=C1/C(=C\c2cn(C(=O)c3ccc(Cl)cc3)c3ccccc23)c2ccccc2N1c1c(Cl)cccc1Cl" :
no

Call for entry "c1ccc2c(Nc3cccc4ccccc34)cccc2c1" :
no

Call for entry CC(=O)OC1Oc2cc(C)c(C)cc2-c2oc(=O)c(-c3cc4ccc(N(C)C)cc4oc3=O)cc21 (stereo unspecified) :
no

Call for entry "O=C1c2cc3c(cc2-c2c1c1cc(Cl)c(Cl)cc1c(=O)n2CCCn1ccnc1)OCO3" :
yes

Call for entry CS(CCCCN=C=S)=NC(=O)c1c(F)c(F)c(F)c(F)c1F (stereo unspecified) :
no

Call for entry O=C1OC2C(I)C3CC2C1C3c1ccccc1 (stereo unspecified) :
no

Call for entry "O=C(Nc1cccc2[nH]c(C(F)(F)F)nc12)c1ccc(Br)cc1F" :
no

Call for entry "C[C@]12C[C@@H](c3ccoc3)OC(=O)[C@@H]1CC[C@]1(C)[C@@H]2CC[C@@H](O)[C@]1(C)O" :
no

Call for entry CCC(c1ccccc1)C(CC)c1ccc(O)c(O)c1 (stereo unspecified) :
no

Call for entry C=C1CC2(OC1=O)C(=O)N(CCCCCCCN1C(=O)C3(CC(=C)C(=O)O3)c3ccccc31)c1ccccc12 (stereo unspecified) :
no

Call for entry "COc1ccc(C(=O)c2sc3nc4c(c(C(F)(F)F)c3c2N)CN(C(C)=O)CC4)cc1OC" :
no

Call for entry "CC(=O)Oc1ccc(Nc2c3ccccc3nc3ccccc23)cc1" :
no

Call for entry C=C1CC[C@@H]2[C@](C)(COC(C)=O)[C@H](OC(C)=O)CC[C@@]2(C)[C@@H]1CC(NCc1ccc(F)cc1)C1=CCOC1=O (stereo partly specified) :
no

Call for entry "O=C(CN1CCN(c2cc3c(cc2F)c(=O)c(C(=O)O)cn3C2CC2)CC1)Nc1nc(-c2ccccc2)cs1" :
no

Call for entry CSc1ncnc2c1ncn2C1CCCO1 (stereo unspecified) :
no

Call for entry "CC(C)(C)n1cc(-c2ccnc(NCCCNS(=O)(=O)c3cccc4ccccc34)c2)c(-c2cccc(O)c2)n1" :
no

Call for entry O=C(O)C(O)C(O)C(=O)O.[NH-]C1CCCCC1[NH-].[Pt+2] (stereo unspecified) :
no

Call for entry "CCCCCCCCCC(=O)Oc1ccc(/C(=C(/C)Cc2cccc(OC)c2)c2ccc(OCCN(C)C)cc2)cc1" :
no

Call for entry "COc1ccc(/C(=C/c2ccc3ccccc3c2)c2nn[nH]n2)cc1OC" :
yes

Call for entry "O=C1C[C@H](N2C(=O)c3ccccc3S2(=O)=O)C2CO[C@@H]1O2" :
no

Call for entry "CC[C@H](Nc1nc(N)nc(C)c1C#N)c1nc2cccc(NCc3ccc(C(=O)NO)cc3)c2c(=O)n1-c1ccccc1" :
no

Call for entry "COC(=O)[C@H](C(C)C)n1c(=O)c2cc(OC)c(OC)cc2c2cnc3[nH]ccc3c21" :
no

Call for entry "CC/C=C\C[C@H](O)C/C=C1/C(=O)C=C[C@@H]1C/C=C\CCCC(=O)NC(C)C" :
no

Call for entry O=C1Nc2ccccc2C12CC(c1ccc(Cl)cc1)=NN2 (stereo unspecified) :
no

Call for entry "CCN(CC)c1ccc(/C=C/C2=[N+](C)c3ccccc3C2(C)C)cc1" :
no

Call for entry "COc1cc(-c2nc3ccccc3s2)ccc1NC(=O)COc1ccc(Cl)cc1" :
no

Call for entry CCN(CC)CC(C)Nc1ccc([N+](=O)[O-])c2sc3ccccc3c(=O)c12 (stereo unspecified) :
no

Call for entry "COc1ccc(-c2cc(NC(=O)Nc3ccc(O)cc3)no2)cc1" :
no

Call for entry "COCCCNc1nc(NC(=O)c2ccc(F)cc2C)cc(-c2cccnc2)n1" :
no

Call for entry "Cc1ccc2c(c1)O/C(=C\c1cccc(OCC(=O)c3ccccc3)c1)C2=O" :
no

Call for entry "COc1ccc(S(=O)(=O)NCCCNc2nccc(-c3c(-c4cccc(N)c4)nc4sccn34)n2)cc1" :
no

Call for entry "COc1cccc(-c2cn3c(ccc4ccccc43)n2)c1" :
no

Call for entry COc1cc(C2CC(=O)Nc3c2cnn3Cc2ccco2)cc2c1OCCO2 (stereo unspecified) :
no

Call for entry "COc1cc(OC)c(/C=C/S(=O)(=O)Cc2ccc(OC)c(N)n2)c(OC)c1" :
no

Call for entry "CCCCCn1cnc2c(=S)nc[nH]c21" :
no

Call for entry "Cn1cc(-c2csc(-c3cn(C)c4ncccc34)n2)c2ccccc21" :
no

Call for entry "CSc1nc(NCCO)c(C#N)c(-c2cccc(N)c2)n1" :
no
